Below, each entry is listed with its recorded pKd.
Molecular target: CFH18-20 (human complement factor H CCP18-20) with myc tag and His-tag (human) (UniProt P08603)
Sequence (P08603 1046-1231): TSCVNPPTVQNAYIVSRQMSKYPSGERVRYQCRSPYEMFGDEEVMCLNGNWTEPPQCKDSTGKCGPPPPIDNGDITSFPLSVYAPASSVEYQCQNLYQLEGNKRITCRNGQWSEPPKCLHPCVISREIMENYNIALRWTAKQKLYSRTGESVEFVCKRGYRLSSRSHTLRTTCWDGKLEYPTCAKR
Experiment: ITC; CFH18-20 in the cell (5-15 uM), VHH4 or mutants in the syringe (50-150 uM), 20 injections; PBS pH 7.4, 25 °C; iTC200
# reply with the number alone; pKd is -log10 of concentration in mol/L

See these solved cases before continuing.
VHH4 W123A (VHH) VHH: QVQLVESGGGLVQAGGSLRLSCAASGLTVDDYAIGWFRQAPGKEREGVSCISSSNGSTYYADSVKGRFTISSDNAKNTAYLQMNSLKPEDTAVYYCAAAVSPNLECGTGPFGIYASYYGMDYAGQGTQVTVSS :: 8.41
VHH4 P102A (VHH) VHH: QVQLVESGGGLVQAGGSLRLSCAASGLTVDDYAIGWFRQAPGKEREGVSCISSSNGSTYYADSVKGRFTISSDNAKNTAYLQMNSLKPEDTAVYYCAAAVSANLECGTGPFGIYASYYGMDYWGQGTQVTVSS :: 8.39
VHH4 T108A (VHH) VHH: QVQLVESGGGLVQAGGSLRLSCAASGLTVDDYAIGWFRQAPGKEREGVSCISSSNGSTYYADSVKGRFTISSDNAKNTAYLQMNSLKPEDTAVYYCAAAVSPNLECGAGPFGIYASYYGMDYWGQGTQVTVSS :: 8.06

Prompt line: Give reported pKd value for VHH4 P110A (VHH) VHH: QVQLVESGGGLVQAGGSLRLSCAASGLTVDDYAIGWFRQAPGKEREGVSCISSSNGSTYYADSVKGRFTISSDNAKNTAYLQMNSLKPEDTAVYYCAAAVSPNLECGTGAFGIYASYYGMDYWGQGTQVTVSS
Response line: 8.30
